The measured values listed here are drawn from patent US20230049752A1.

subjectOfTest: human Claudin-6 (CLDN6) (human) (UniProt P56747)
assayName: FACS, limiting dilution, UMUC4 cells

binder	FACS signal at 0.32 nM
AB S4 (antibody, V domains shown) VH: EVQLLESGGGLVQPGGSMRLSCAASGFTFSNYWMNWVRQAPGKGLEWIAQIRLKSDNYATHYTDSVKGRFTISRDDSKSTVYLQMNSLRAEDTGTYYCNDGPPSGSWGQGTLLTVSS VL: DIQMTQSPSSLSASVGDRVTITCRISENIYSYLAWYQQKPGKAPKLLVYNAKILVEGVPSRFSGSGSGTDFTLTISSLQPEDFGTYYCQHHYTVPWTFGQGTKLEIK	518
AB3-7 (antibody, V domains shown, humanized; also called AB23; humanized AB3-7) VH: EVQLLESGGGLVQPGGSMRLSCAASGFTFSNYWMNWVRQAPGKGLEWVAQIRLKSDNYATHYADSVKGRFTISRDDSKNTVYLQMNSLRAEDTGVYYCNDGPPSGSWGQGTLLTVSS VL: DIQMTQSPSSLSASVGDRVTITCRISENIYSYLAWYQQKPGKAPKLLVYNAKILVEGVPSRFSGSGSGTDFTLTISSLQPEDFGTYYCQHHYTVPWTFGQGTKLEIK	604
AB S5 (antibody, V domains shown) VH: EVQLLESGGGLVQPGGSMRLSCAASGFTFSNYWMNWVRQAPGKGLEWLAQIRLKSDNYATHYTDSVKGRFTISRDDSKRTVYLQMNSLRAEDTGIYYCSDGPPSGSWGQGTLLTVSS VL: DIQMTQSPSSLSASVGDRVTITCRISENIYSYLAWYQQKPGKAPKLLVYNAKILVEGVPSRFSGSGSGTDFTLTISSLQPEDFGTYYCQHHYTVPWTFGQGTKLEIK	481
AB S6 (antibody, V domains shown) VH: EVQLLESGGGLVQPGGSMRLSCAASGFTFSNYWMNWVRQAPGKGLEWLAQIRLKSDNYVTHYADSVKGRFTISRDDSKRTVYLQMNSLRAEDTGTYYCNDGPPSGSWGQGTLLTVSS VL: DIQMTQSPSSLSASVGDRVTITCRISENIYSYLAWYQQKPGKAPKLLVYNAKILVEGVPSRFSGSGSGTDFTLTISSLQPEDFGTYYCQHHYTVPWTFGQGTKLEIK	1320
